Measured GI50 of individual entries
Test system: OVCAR-5 ovarian
Assay: NCI tumour cell line growth inhibition, 48 h

Worked examples follow.
compound | GI50
COc1cnc2c(c1)C(=O)c1c-2n(CCCN2CCCC2)c(=O)c2cc(F)ccc12 | 0.41 µM
C/C(=C\c1ccc(Cl)c(Cl)c1)[N+](=O)[O-] | 2.25 µM
C#CCOc1cccc(Nc2ncnc3ccc(NC(=O)CCl)cc23)c1 | 3.04 µM
CCCCn1sc(=O)n(Cc2ccc(CNC(=O)OCc3ccc4c(Br)cc(Br)c(O)c4n3)cc2)c1=O | > 24.7 µM
O=C(O)C1(Cc2cccc(Nc3nccs3)n2)CCC(Oc2cccc(Cl)c2F)CC1 (centres undefined) | 13.8 µM

### Prompt # GI50 lookup, item O=C(Oc1ccccc1Cl)c1ccccc1Nc1ccnc(C(F)(F)F)c1
### Response 0.459 µM

### Prompt Now try CC(=O)[O-].O=C([CH-]C(=O)c1ccccc1)c1ccccc1.O=C([CH-]C(=O)c1ccccc1)c1ccccc1.[Y+3] .
### Response 17.3 µM

### Prompt Now try Nc1c(C(=O)Nc2ccccc2F)sc2nc3c(cc12)C(=O)CCC3 .
### Response 4.05 µM

### Prompt Now try CC(=O)OCC1O[C@@H]([S-])C(OC(C)=O)[C@H](OC(C)=O)[C@@H]1OC(C)=O.[Au+].c1ccc(CN2[CH-]N(Cc3ccccc3)C(c3ccccc3)=C2c2ccccc2)cc1 .
### Response 1.92 µM

Recorded values, source PubChem BioAssay (NCI).
